Origin of values: the METLIN SMRT retention time set (Domingo-Almenara et al. 2019)

Assay: gradient 5% acetonitrile 3 min, to 50% in 2 min, to 85% in 15 min, held 3 min, 100 µL/min
Conditions: column: Zorbax Extend-C18 2.1 x 50 mm; eluents: water / acetonitrile, 0.1% formic acid
measurement-type: RP-LC retention time (s)
I only need the number, in s, no unit after it.

// query Given the entry CCC(C)NC(=O)c1cc(C)[nH]n1 (stereo not given) , report its measured RP-LC retention time.
// result 623

// query And for O=C(Cc1csc(Nc2ccccc2)n1)NCCC1=CCCCC1 ?
// result 865

// query And for COc1ccc(-c2cn3c(CC(=O)Nc4ccc(F)c(F)c4)csc3n2)cc1OC ?
// result 774

// query And for Cc1nnc2cc(N3CCN(S(=O)(=O)c4ccc(CC(C)C)cc4)CC3)cnn12 ?
// result 695

// query And for CC1CCCN(C(=O)c2nc(-c3ccnc(N4CCCC4)c3)no2)C1 (stereo not given) ?
// result 682
